- SYSTEM: r5-HT2C (Rattus norvegicus)
- Sequence (P08909 33-460): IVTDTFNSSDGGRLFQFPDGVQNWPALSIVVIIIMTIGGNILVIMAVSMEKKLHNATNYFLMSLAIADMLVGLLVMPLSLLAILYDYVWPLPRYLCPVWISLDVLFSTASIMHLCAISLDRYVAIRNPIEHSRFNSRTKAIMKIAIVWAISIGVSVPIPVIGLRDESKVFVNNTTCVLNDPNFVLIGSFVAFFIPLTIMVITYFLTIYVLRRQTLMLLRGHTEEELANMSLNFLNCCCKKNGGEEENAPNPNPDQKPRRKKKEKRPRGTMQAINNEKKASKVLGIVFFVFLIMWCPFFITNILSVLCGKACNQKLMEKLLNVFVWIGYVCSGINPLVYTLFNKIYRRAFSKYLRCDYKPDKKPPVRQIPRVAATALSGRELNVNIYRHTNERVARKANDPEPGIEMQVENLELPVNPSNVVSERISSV
- EXPERIMENT_DESCRIPTION: Ca2+ mobilization assay
- Type: cell-based
- ASSAY_CONDITIONS: read-out: r5-HT2C Emax
Catalogue of Emax readings, one per entry.
Numeric answer only, unit % assumed.

Some compounds with known Emax results, for comparison:
[[record]]
smiles_structure = "COc1ccc2[nH]cc(CCNCc3ccccc3Br)c2c1"
endpoint_name = "Emax"
value_unit = "%"
test_value = 104

[[record]]
smiles_structure = "COc1ccc2[nH]cc(CCNCc3cccc(C(F)(F)F)c3)c2c1"
endpoint_name = "Emax"
value_unit = "%"
test_value = 104

[[record]]
smiles_structure = "COc1ccc2[nH]cc(CCNCc3cccc(SC)c3)c2c1"
endpoint_name = "Emax"
value_unit = "%"
test_value = 101


Note: attention shifts to another entry.
Can you share its Emax? I mean this compound: COc1ccc(CNCCc2c[nH]c3ccc(OC)cc23)cc1
102
